Listed compounds paired with reported solubility thermodynamic at 3 h
Test Protocol: physchem
Assay type: physicochemical
Conditions Used: pH 6.8, aqueous buffer, thermodynamic from solid
Unit µg/mL implied. Number only.

{"Chemical Structure": "O=C(/C=C/C=C/c1ccc2c(c1)OCO2)N1CCCCC1", "solubility thermodynamic at 3 h [µg/mL]": 6}

*Q* Suppose we examine the compound `COc1ccc([C@@H]2CC(=O)c3c(O)cc(O)cc3O2)cc1O` ; what solubility thermodynamic at 3 h value has been reported?
*A* 5

###

Test Protocol: in vitro
Format: in vitro ADME
Conditions Used: PAMPA, pH 6.8
Parameter Measured: Papp at 3 h (×10⁻⁶ cm/s)
Unit ×10⁻⁶ cm/s implied. Number only.

*Q* Suppose we examine the molecule `O=C(/C=C/C=C/c1ccc2c(c1)OCO2)N1CCCCC1` ; what Papp at 3 h value has been reported?
*A* 37.3

###

Test Protocol: in vitro
Conditions Used: PAMPA, pH 7.4
Listed compounds paired with reported Papp at 3 h
Unit ×10⁻⁶ cm/s implied. Number only.

*Q* Suppose we examine the compound `O=C(/C=C/C=C/c1ccc2c(c1)OCO2)N1CCCCC1` ; what Papp at 3 h value has been reported?
*A* 40

*Q* Suppose we examine the compound `COc1ccc([C@@H]2CC(=O)c3c(O)cc(O)cc3O2)cc1O` ; what Papp at 3 h value has been reported?
*A* 7.05

###

Test Protocol: in vitro
Type: in vitro ADME
Conditions Used: PAMPA; raw compound dissolved in DMSO; donor pH ≈ 6.8, 3 h, 37 °C; read-out: apparent permeability coefficient (Papp), PAMPA GIT
Parameter Measured: Papp (×10⁻⁶ cm/s)
Unit ×10⁻⁶ cm/s implied. Number only.

*Q* Suppose we examine the molecule `COc1ccc([C@@H]2CC(=O)c3c(O)cc(O)cc3O2)cc1O` ; what Papp value has been reported?
*A* 2.59

Entry source: paper PMC10002548
